# Test system: H3K27 methylation in G401 cell
# ASSAY: ELISA (H3K27 methylation) assay in G401 cells
# Type: cell-based, human
# CONDITION_NOTES: Homo sapiens, G-401, H3K27 methylation ELISA, read-out: (c) IC50 ELISA Qualified
pIC50: −log10 of the molar value.
TEST_READOUT: pIC50

These solved cases illustrate the format of a correct answer.
> print(dat)
                                   compound                       tested.on  test.readout  recorded.measurement
1  COc1cccc(F)c1CNc1ccc(-c2ccc(F)nc2C)c2nncn12  H3K27 methylation in G401 cell         pIC50                  8.00
2   COc1cccc(F)c1CNc1ccc(-c2cnccn2)c2nncn12  H3K27 methylation in G401 cell         pIC50                  7.47
3  COc1cccc(F)c1CNc1ccc(-c2ccc(C(=O)N(C)C)cc2)c2nncn12  H3K27 methylation in G401 cell         pIC50                  7.62
4  COc1cccc(F)c1CNc1ccc(-c2c(C)nn(CC(C)O)c2C)c2nncn12 (stereo not drawn)  H3K27 methylation in G401 cell         pIC50                  7.81

1: COc1cccc(F)c1CNc1ccc(-c2ccnc(F)c2C)c2nncn12
2: COc1cc(F)cc(F)c1CNc1c(F)cc(-c2cnc(C)nc2C)c2nncn12
Would you let me know which has the greater pIC50 value, 1 or 2 ? Your choice should be expressed through its label.
1
(1: 8.10, 2: 5.81)

A: COc1cc(F)cc(F)c1CNc1ccc(-c2ccc(S(C)(=O)=O)nc2C)c2nncn12
B: COc1cccc(F)c1CNc1ccc(-c2ccnn2C(C)C)c2nncn12
Returns: the label, A or B , whose recorded pIC50 is the lower number. Reply with the label of the item you choose.
B

a: COc1cccc(F)c1CNc1ccc(-c2ccc(S(C)(=O)=O)cc2F)c2nncn12
b: COc1cccc(F)c1CNc1ccc(-c2cnn(CCN3CCOCC3)c2)c2nncn12
Endpoint returns whichever of a and b has the numerically higher pIC50. I would appreciate it if you answered with the label of your choice.
a
(a: 7.91, b: 7.41)
